ELISA absorbance 405 nm by entry:
Biological target: T1, recombinant human wild type EGFR protein (extracellular domain), native (human, UniProt P00533 25-645)
T1 construct: also called wt EGFR; EGFR WT
Experiment: ELISA Exp 1, mAb supernatant
Give just the number in A405; leave the unit off.

Worked cases, answers included:
binder	ELISA absorbance 405 nm / A405
F263-4B3 (antibody, V domains shown, Mouse hybridoma mAb) VH: EVQLQQSGPELVKPGSSVKISCKASGYTFTDYNMDWVKQSHGKSLEWIGTINPNNGGTSYNQKFKGKATLTVDKSSNTAYMELRSLTSEDSAVYYCARGYDYDLWFAYWGQGTLVTVSA VL: EIVLTQSPALMAASPGEKVTITCSVSSSISSSNLHWYQQKSETSPKPWIYGTSNLASGVPVRFSGSGSGTSYSLTISSMEAEDAATYYCQQWSSYPLTFGAGTKLELE	1.09
F263-4E11 (antibody, V domains shown, Mouse hybridoma mAb) VH: DVQLQESGPGLVKPSQSLSLTCTVTGYSITSDYAWNWIRQFPGNKLEWMGYIGYNGRTSYNPSLKSRISITRDTSKNQFFLQLNYVTTEDTATFYCARLGRGFAYWGQGTLVTVSA VL: DILMTQSPSSMSVSLGDTVSITCHASQGINSNIGWLLQKPGKSFKGLIYHGTNLEDGVPSRFSGSGSGTDYSLTISSLESEDFADYYCVQYAQFPYTFGGGTKLEIK	1.62

Shifting focus to the binder that follows.
Consider the binder shown here: F265-9C9 (antibody, V domains shown, Mouse hybridoma mAb) VH: QVQLQQPGAELVKPGASVKLSCKASGYTFTSYWMHWVKQRPGQDLEWIGEIDPSDSYTNYNQKFKGKATLTVDKSSSTAYIQLSSLTSEDSALYYCARFDFAYWGQGTLVTVSA VL: EIVLTQSPTLMAASPGEKVTITCSVSSSISSSNLHWYQQKSETSPKPWIYDTSNLASGVPIRFSGSGSGTSYSLTISSVEAEDAATYYCQQWSSYPLTFGSGTKLEIK What is its recorded ELISA absorbance 405 nm? 0.21
